target: C. elegans (N2) complex I (NADH:ubiquinone oxidoreductase) (Caenorhabditis elegans, UniProt P24887+Q93873+Q94360); experiment: biochemical; type: biochemical; conditions: 37.5 µM; wild-type C. elegans mitochondria; mean of replicates; read-out: percent (%) in vitro complex I activity relative to solvent control
Sequence (Q94360 17-199): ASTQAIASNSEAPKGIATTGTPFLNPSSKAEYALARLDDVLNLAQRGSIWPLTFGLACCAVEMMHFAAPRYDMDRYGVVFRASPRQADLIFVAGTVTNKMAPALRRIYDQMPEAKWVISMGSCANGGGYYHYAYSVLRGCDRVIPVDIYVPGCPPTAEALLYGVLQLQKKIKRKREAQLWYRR
Sequence (P24887 whole entry): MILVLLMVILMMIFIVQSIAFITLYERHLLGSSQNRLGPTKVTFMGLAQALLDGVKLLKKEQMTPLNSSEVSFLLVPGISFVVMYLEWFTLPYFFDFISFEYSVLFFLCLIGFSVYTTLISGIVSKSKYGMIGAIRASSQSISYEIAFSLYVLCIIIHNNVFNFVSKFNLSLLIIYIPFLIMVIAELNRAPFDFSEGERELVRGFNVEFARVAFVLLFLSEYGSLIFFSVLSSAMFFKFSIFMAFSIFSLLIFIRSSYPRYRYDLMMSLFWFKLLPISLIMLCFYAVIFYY
Sequence (Q93873 31-482): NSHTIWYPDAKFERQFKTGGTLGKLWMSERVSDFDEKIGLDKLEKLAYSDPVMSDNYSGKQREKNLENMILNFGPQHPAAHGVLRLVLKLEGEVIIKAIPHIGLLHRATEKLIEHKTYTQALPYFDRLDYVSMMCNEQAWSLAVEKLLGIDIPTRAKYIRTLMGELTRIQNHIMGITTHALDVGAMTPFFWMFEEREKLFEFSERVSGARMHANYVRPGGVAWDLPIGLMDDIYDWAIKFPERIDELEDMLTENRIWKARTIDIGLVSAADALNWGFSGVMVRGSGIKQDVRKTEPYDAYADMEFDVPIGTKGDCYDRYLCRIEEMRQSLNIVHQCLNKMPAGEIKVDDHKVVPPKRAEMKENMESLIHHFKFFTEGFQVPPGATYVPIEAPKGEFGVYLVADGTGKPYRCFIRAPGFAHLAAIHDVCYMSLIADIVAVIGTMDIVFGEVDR
Recorded measurements of remaining activity at 37.5 µM, one per entry

Compound: COc1cc2c(cc1OC)C(c1ccc(-c3ccc(Cl)c(Cl)c3)o1)=NCC2 [NPD3577]
remaining activity at 37.5 µM [%]: 42.6
--
Compound: COc1ccc(Cc2nccc3cc(OC)c(OC)cc23)cc1OC [Papaverine, reference compound]
remaining activity at 37.5 µM [%]: 6.94
--
Compound: COc1cc2c(cc1OC)C(/C=C/c1ccc(N(C)C)cc1)=NCC2 [NPD6303]
remaining activity at 37.5 µM [%]: 15
--
Compound: COC(=O)Nc1nc2ccc(Sc3ccccc3)cc2[nH]1 [fenbendazole, reference compound]
remaining activity at 37.5 µM [%]: 106
--
Compound: COC(=O)Nc1nc2ccc(C(=O)c3ccccc3)cc2[nH]1 [mebendazole, reference compound]
remaining activity at 37.5 µM [%]: 97.7
--
Compound: COc1cc2c(cc1OC)C(C(C)c1ccc(CC(C)C)cc1)=NCC2 (stereo not shown) [NPD10504]
remaining activity at 37.5 µM [%]: 12.4
--
Compound: CC(C)Cc1ccc(C(C)c2nc3ccccc3n2C)cc1 (stereo not shown) [NPD8790]
remaining activity at 37.5 µM [%]: 3.88

###

test: in vitro; conditions: human, HEK293 viability, dose 25 µM; Mean of replicates
Result type: viability

Compound: C=C(C)[C@H]1Cc2c(ccc3c2O[C@@H]2COc4cc(OC)c(OC)cc4[C@@H]2C3=O)O1 [Rotenone, reference compound]
Result type: viability
Result: 21.4%

###

# reported activity at 0.0001 µM; entries follow
target: C. elegans (N2) complex I (NADH:ubiquinone oxidoreductase) (Caenorhabditis elegans, UniProt P24887+Q93873+Q94360); test: biochemical; format: biochemical; conditions: Dose 0.0001 µM; read-out: C. elegans mitochondrial complex I activity

Compound: Cc1ccc(C(C)C)c(OCC(O)Cn2cnc3ccccc32)c1 (stereo not shown) [Compound 6093301]
activity at 0.0001 µM: 99.6%

Compound: Nc1nc2ccccc2n1CCOc1ccc(Br)cc1 [Compound 5842535]
activity at 0.0001 µM: 80%

Compound: Clc1ccc(SCCCCn2cnc3ccccc32)cc1 [Compound 7925515]
activity at 0.0001 µM: 90.8%

Compound: Cc1ccc(OCCn2cnc3ccccc32)cc1 [Compound 5671538]
activity at 0.0001 µM: 97.2%

Compound: Nc1nc2ccccc2n1Cc1ccc(Cl)cc1 [Compound 5652765]
activity at 0.0001 µM: 86.1%

Compound: Cc1ccc(SCCCCn2cnc3ccccc32)cc1 [Compound 7925333]
activity at 0.0001 µM: 91.6%

Compound: Cc1ccccc1OCCCn1c(C)nc2ccccc21 [Compound 7916923]
activity at 0.0001 µM: 94.5%

Compound: Brc1ccccc1OCCCCn1cnc2ccccc21 [Compound 7924576]
activity at 0.0001 µM: 82.9%

Compound: Cc1nc2ccccc2n1Cc1ccc(Cl)c(Cl)c1 [Compound 5655567]
activity at 0.0001 µM: 86.1%

Compound: CCCOc1ccc(Cn2cnc3ccccc32)cc1 [Compound 7355741]
activity at 0.0001 µM: 85.2%

###

target: M. musculus (heart) complex I (Mus musculus, UniProt P03888+Q91WD5+Q9DC70); experiment: biochemical; format: biochemical; conditions: M. musculus; dose 0.063 µM; Mean of replicates; read-out: Complex I activity, dose-response data
Sequence (Q91WD5 34-463): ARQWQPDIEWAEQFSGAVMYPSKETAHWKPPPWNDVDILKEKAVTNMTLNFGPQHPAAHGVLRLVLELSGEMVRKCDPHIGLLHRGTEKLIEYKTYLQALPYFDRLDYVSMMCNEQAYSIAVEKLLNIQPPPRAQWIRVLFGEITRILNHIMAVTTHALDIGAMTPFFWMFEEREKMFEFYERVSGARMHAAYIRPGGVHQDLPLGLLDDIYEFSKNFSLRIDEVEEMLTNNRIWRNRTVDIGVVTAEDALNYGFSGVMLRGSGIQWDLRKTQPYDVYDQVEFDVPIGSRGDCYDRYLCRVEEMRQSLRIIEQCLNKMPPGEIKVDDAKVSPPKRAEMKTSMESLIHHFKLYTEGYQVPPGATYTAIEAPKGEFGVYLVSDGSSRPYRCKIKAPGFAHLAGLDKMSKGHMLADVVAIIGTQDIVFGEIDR
Sequence (Q9DC70 36-224): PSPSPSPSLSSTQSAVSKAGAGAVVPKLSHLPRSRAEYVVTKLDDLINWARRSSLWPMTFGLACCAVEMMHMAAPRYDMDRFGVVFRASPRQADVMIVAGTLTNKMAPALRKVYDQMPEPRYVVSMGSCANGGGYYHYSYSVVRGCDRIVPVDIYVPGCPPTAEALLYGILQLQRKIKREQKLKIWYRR
Sequence (P03888 whole entry): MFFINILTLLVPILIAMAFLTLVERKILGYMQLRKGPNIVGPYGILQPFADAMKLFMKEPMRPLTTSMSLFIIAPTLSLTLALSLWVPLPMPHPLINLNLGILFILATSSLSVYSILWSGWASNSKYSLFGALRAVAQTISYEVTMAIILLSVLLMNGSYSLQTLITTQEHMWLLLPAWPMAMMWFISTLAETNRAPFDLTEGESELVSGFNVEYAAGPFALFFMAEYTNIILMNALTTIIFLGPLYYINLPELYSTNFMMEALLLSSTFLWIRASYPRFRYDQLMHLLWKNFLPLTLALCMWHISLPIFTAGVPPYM
The following molecules are listed with their measured activity at 0.063 µM values.
Result type: activity at 0.063 µM (%)

Molecule: COc1cc2c(cc1OC)C(/C=C/c1ccc(N(C)C)cc1)=NCC2
Result type: activity at 0.063 µM
Recorded number: 106
--
Molecule: COc1cc2c(cc1OC)C(c1ccc(-c3ccc(Cl)c(Cl)c3)o1)=NCC2
Result type: activity at 0.063 µM
Recorded number: 100
--
Molecule: CC(C)Cc1ccc(C(C)c2nc3ccccc3n2C)cc1 (stereo not shown)
Result type: activity at 0.063 µM
Recorded number: 103
--
Molecule: COc1cc2c(cc1OC)C(C(C)c1ccc(CC(C)C)cc1)=NCC2 (stereo not shown)
Result type: activity at 0.063 µM
Recorded number: 102

###

target: M. musculus (heart) complex I (Mus musculus, UniProt P03888+Q91WD5+Q9DC70); assay: biochemical; type: biochemical; conditions: M. musculus; dose 0.025 µM; Mean of replicates; read-out: Complex I activity, dose-response data
Result type: activity at 0.025 µM (%)

Compound: COc1cc2c(cc1OC)C(/C=C/c1ccc(N(C)C)cc1)=NCC2
Result type: activity at 0.025 µM
Reading unit: %
Recorded number: 104
--
Compound: COc1cc2c(cc1OC)C(C(C)c1ccc(CC(C)C)cc1)=NCC2 (stereo not shown)
Result type: activity at 0.025 µM
Reading unit: %
Recorded number: 108
--
Compound: CC(C)Cc1ccc(C(C)c2nc3ccccc3n2C)cc1 (stereo not shown)
Result type: activity at 0.025 µM
Reading unit: %
Recorded number: 106
--
Compound: COc1cc2c(cc1OC)C(c1ccc(-c3ccc(Cl)c(Cl)c3)o1)=NCC2
Result type: activity at 0.025 µM
Reading unit: %
Recorded number: 107

###

Biological target: B. taurus (heart) complex I (Bos taurus, UniProt P03887+P17694+P42026)
Sequence (P03887 whole entry): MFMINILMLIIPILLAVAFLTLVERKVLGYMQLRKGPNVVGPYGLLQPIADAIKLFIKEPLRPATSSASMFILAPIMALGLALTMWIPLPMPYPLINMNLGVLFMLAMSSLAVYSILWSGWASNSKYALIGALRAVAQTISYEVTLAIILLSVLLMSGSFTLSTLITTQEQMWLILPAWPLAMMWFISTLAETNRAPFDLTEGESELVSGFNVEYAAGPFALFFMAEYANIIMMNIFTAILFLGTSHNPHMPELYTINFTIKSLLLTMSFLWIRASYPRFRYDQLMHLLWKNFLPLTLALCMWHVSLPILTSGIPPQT
Sequence (P17694 34-463): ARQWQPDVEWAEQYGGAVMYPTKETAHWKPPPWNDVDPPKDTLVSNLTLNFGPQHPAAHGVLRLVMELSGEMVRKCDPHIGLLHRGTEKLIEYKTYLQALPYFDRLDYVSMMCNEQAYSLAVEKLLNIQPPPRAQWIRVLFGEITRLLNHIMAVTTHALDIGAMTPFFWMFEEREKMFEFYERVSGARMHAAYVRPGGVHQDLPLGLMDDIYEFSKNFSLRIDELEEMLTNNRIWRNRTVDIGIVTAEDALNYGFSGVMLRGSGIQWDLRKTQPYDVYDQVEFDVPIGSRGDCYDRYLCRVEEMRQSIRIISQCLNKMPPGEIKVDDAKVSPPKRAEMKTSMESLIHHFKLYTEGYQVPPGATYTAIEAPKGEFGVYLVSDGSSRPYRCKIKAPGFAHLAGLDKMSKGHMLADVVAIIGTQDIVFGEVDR
Sequence (P42026 38-216): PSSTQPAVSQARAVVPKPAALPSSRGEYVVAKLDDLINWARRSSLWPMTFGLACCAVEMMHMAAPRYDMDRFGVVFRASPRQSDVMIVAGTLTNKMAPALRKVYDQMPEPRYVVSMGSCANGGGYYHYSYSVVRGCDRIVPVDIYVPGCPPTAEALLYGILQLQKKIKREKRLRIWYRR
Assay: biochemical
Type: biochemical
Settings: Dose 0.013 µM; read-out: B. taurus mitochondrial complex I activity
Description: Six 8–10-week-old C57Bl/6 female mice (Charles River) were freshly dissected, and their livers and hearts collected into separate 1.5 mL microcentrifuge tubes. Organs were flash-frozen in liquid nitrogen and stored at −80 °C prior to use. […] The enzymatic activities of individual ETC complexes (I-IV) were assessed spectrophotometrically in isolated mitochondria using a Varioskan LUX Multimode plate reader (ThermoFisher Scientific). […]
Recorded activity at 0.013 µM by entry

Molecule: Cc1nc2ccccc2n1Cc1ccc(Cl)c(Cl)c1 [Compound 5655567]
activity at 0.013 µM (%): 85.5
//
Molecule: Cc1ccc(SCCCCn2cnc3ccccc32)cc1 [Compound 7925333]
activity at 0.013 µM (%): 89.8
//
Molecule: Clc1ccc(SCCCCn2cnc3ccccc32)cc1 [Compound 7925515]
activity at 0.013 µM (%): 95.1
//
Molecule: Cc1ccccc1OCCCCn1cnc2ccccc21 [Compound 7732524]
activity at 0.013 µM (%): 91.3
//
Molecule: Cc1ccccc1OCCCn1c(C)nc2ccccc21 [Compound 7916923]
activity at 0.013 µM (%): 99.6
//
Molecule: CC(C)Oc1cccc(OCCn2cnc3ccccc32)c1 [Compound 7926496]
activity at 0.013 µM (%): 90.6
//
Molecule: Clc1ccc(Cn2cnc3ccccc32)cc1Cl [Compound 5571325]
activity at 0.013 µM (%): 88.2
//
Molecule: Clc1ccccc1OCCCCn1cnc2ccccc21 [Compound 7925804]
activity at 0.013 µM (%): 117
//
Molecule: Cc1ccc(OCCn2cnc3ccccc32)c(C)c1 [Compound 7706808]
activity at 0.013 µM (%): 97.8
//
Molecule: Cc1ccc(OCCn2cnc3ccccc32)cc1 [Compound 5671538]
activity at 0.013 µM (%): 95.8

###

target: B. taurus (heart) complex I (Bos taurus, UniProt P03887+P17694+P42026); experiment: biochemical; assay type: biochemical; details: Dose 0.001 µM; read-out: B. taurus mitochondrial complex I activity
Entries annotated with measured activity at 0.001 µM

Chemical string: Cc1ccc(SCCCCn2cnc3ccccc32)cc1
Tested system: B. taurus (heart) complex I (Bos taurus, UniProt P03887+P17694+P42026)
activity at 0.001 µM: 87.5%

Chemical string: Cc1nc2ccccc2n1Cc1ccc(Cl)c(Cl)c1
Tested system: B. taurus (heart) complex I (Bos taurus, UniProt P03887+P17694+P42026)
activity at 0.001 µM: 95.5%

Chemical string: Cc1nc2ccccc2n1CCOc1ccccc1
Tested system: B. taurus (heart) complex I (Bos taurus, UniProt P03887+P17694+P42026)
activity at 0.001 µM: 105%

Chemical string: Cc1ccccc1OCCCCn1cnc2ccccc21
Tested system: B. taurus (heart) complex I (Bos taurus, UniProt P03887+P17694+P42026)
activity at 0.001 µM: 97%

Chemical string: CC(C)Oc1cccc(OCCn2cnc3ccccc32)c1
Tested system: B. taurus (heart) complex I (Bos taurus, UniProt P03887+P17694+P42026)
activity at 0.001 µM: 91.7%

###

molecular target: C. elegans (N2) complex I (NADH:ubiquinone oxidoreductase) (Caenorhabditis elegans, UniProt P24887+Q93873+Q94360); test: biochemical; type: biochemical; conditions: 0.313 µM; wild-type C. elegans mitochondria; mean of replicates; read-out: percent (%) in vitro complex I activity relative to solvent control
Result type: remaining activity at 0.313 µM

Molecule: COc1ccc(Cc2nccc3cc(OC)c(OC)cc23)cc1OC [Papaverine, reference compound]
Result: 87.5%
--
Molecule: COC(=O)Nc1nc2ccc(C(=O)c3ccccc3)cc2[nH]1 [mebendazole, reference compound]
Result: 102%
--
Molecule: COc1cc2c(cc1OC)C(/C=C/c1ccc(N(C)C)cc1)=NCC2
Result: 88%
--
Molecule: CC(C)Cc1ccc(C(C)c2nc3ccccc3n2C)cc1 (stereo not shown)
Result: 93%
--
Molecule: COC(=O)Nc1nc2ccc(Sc3ccccc3)cc2[nH]1 [fenbendazole, reference compound]
Result: 101%
--
Molecule: COc1cc2c(cc1OC)C(c1ccc(-c3ccc(Cl)c(Cl)c3)o1)=NCC2
Result: 92.4%
--
Molecule: COc1cc2c(cc1OC)C(C(C)c1ccc(CC(C)C)cc1)=NCC2 (stereo not shown)
Result: 91.5%
